- TARGET_OR_TEST_SYSTEM: T1, Human CD3eg linker (human)
- T1 construct: single-chain construct; also called recombinant human CD3
- T1 chain: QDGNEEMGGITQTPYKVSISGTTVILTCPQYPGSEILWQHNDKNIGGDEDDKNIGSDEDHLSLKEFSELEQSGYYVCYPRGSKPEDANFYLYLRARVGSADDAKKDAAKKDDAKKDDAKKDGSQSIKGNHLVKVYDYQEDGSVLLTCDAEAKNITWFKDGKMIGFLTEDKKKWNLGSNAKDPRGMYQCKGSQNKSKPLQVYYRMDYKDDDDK
- TEST_DETAILS: SPR, vs unmutated H183/L072
So I've got a bunch of binders here, and I need their fold change of affinity values.
Report field: quantity (unit follows the number).

BINDER: dBBDu183H V100cK/dBBDu072L (antibody, name in Kabat numbering, V domains shown) VH: QVQLVESGGGLVQPGRSLRLSCAASGFTFSNAWMHWVRQAPGKGLEWVAQIKDKGNAYAAYYAPSVKGRFTISRDDSKNSIYLQMNSLKTEDTAVYYCHYVHYASASTKLPAFGVDAWGQGTTVTVSS VL: DIVMTQSPLSLPVTPGEPASISCQASQELVHMNRNTYLHWYQQKPGQAPRLLIYKVSNRFPGVPDRFSGSGSGTDFTLKISRVEAEDVGVYYCAQGTSVPFTFGQGTKLEIK
fold change of affinity: 1.2 fold
//
BINDER: dBBDu183H S99V/dBBDu072L (antibody, name in Kabat numbering, V domains shown) VH: QVQLVESGGGLVQPGRSLRLSCAASGFTFSNAWMHWVRQAPGKGLEWVAQIKDKGNAYAAYYAPSVKGRFTISRDDSKNSIYLQMNSLKTEDTAVYYCHYVHYAVASTVLPAFGVDAWGQGTTVTVSS VL: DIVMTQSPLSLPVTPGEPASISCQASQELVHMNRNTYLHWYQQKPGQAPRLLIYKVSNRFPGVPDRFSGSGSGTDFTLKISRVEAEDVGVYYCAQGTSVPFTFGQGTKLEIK
fold change of affinity: 0.8 fold

The record that follows has no fold change of affinity shown yet.
Provide only the value of recorded fold change of affinity for dBBDu183H A102E/dBBDu072L (antibody, name in Kabat numbering, V domains shown) VH: QVQLVESGGGLVQPGRSLRLSCAASGFTFSNAWMHWVRQAPGKGLEWVAQIKDKGNAYAAYYAPSVKGRFTISRDDSKNSIYLQMNSLKTEDTAVYYCHYVHYASASTVLPAFGVDEWGQGTTVTVSS VL: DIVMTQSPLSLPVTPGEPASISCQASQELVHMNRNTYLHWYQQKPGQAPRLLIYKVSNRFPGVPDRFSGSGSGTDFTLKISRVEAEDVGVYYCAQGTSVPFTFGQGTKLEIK 1.1 fold

These entries and their values trace back to patent US20210388087A1.
